Reported IC50 values follow for various compounds
- System: MST1 (Homo sapiens)
- Sequence (Q13043 1-487): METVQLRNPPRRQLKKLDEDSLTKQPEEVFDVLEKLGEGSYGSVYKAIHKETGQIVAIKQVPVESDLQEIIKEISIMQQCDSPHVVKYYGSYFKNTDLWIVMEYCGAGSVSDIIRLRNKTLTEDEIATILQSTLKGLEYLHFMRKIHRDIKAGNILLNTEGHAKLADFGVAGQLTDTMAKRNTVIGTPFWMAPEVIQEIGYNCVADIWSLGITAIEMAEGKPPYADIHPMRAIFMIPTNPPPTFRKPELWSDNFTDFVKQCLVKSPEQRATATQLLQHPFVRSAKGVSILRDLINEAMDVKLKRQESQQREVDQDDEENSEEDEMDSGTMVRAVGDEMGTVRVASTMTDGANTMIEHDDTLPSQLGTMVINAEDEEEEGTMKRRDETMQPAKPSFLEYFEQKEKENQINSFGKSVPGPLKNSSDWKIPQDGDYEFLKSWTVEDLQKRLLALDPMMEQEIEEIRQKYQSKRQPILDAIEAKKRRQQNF
- Protocol: In vitro measurement of MST1 inhibition (Z′-Lyte kinase assay)
- Assay type: biochemical
- Particulars: 50 μM ATP; read-out: IC50 (μM) 50 μM ATP

>  <Compound>
CN(C1CC1)S(=O)(=O)c1ccc(-c2cnc(N)c(-c3ccc4c(c3)C3(CC3)CNC4=O)c2)cc1

>  <Meas Value>
< 0.01 µM

$$$$
>  <Compound>
CCN(C)S(=O)(=O)c1ccc(-c2cnc(N)c(-c3ccc4c(c3)CCNC4=O)c2)nc1

>  <Meas Value>
< 0.01 µM

$$$$
>  <Compound>
CN(C1CC1)S(=O)(=O)c1ccc(-c2cnc(N)c(-c3ccc4c(c3)CCNC4=O)c2)nc1

>  <Meas Value>
< 0.01 µM

$$$$
>  <Compound>
CN(C1CC1)S(=O)(=O)c1ccc(-c2cnc(N)c(-c3ccc4c(O)ncc(Br)c4c3)n2)cc1

>  <Meas Value>
< 0.01 µM

$$$$
>  <Compound>
Cc1cc(-c2cnc(N)c(-c3ccc4c(c3)C(C)(C)CNC4=O)n2)ccc1S(=O)(=O)NC1CC1

>  <Meas Value>
< 0.01 µM

$$$$
>  <Compound>
CCN(CC)S(=O)(=O)c1ccc(-c2cnc(N)c(-c3ccc4c(O)ncnc4c3)c2)cc1

>  <Meas Value>
< 0.01 µM

$$$$
>  <Compound>
CCC(=O)c1ccc(-c2cnc(N)c(-c3ccc4c(c3)CCNC4=O)n2)cc1

>  <Meas Value>
< 0.01 µM

$$$$
>  <Compound>
CN(C1CC1)S(=O)(=O)c1ccc(-c2cnc(N)c(-c3cc4c(cn3)C(=O)NCC4)c2)cc1

>  <Meas Value>
< 0.01 µM

$$$$
>  <Compound>
[2H]C1([2H])CNC(=O)c2ccc(-c3nc(-c4ccc(S(=O)(=O)NC5CC5)cc4)cnc3N)cc21

>  <Meas Value>
< 0.01 µM

$$$$
>  <Compound>
CC1(C)C(=O)NC(=O)c2ccc(-c3nc(-c4ccc(S(=O)(=O)NC5CC5)cc4)cnc3N)cc21

>  <Meas Value>
< 0.15 µM

$$$$

# lookup: IC50 of CN1Cc2cc(-c3nc(-c4ccc(S(=O)(=O)N(C)C5CC5)cc4)cnc3N)ccc2C(=O)N1
< 0.01 µM

Cool, now CN(C1CC1)S(=O)(=O)c1ccc(-c2cc(-c3ccc4c(c3)CCNC4=O)c(N)nn2)cc1
< 0.01 µM

Also, CN(C1CC1)S(=O)(=O)c1ccc(-c2cnc(N)c(-c3cc4c(cn3)C(=O)NCC4)n2)cc1 please.
< 0.01 µM

Again, but for CCNS(=O)(=O)c1ccc(-c2cnc(N)c(-c3ccc4c(O)ncnc4c3)c2)cc1
< 0.01 µM

Also, N#Cc1ccc(-c2cnc(N)c(-c3ccc4c(c3)C3(CC3)CNC4=O)n2)cc1 please.
< 0.01 µM
